Attribute: Human Primary Hepatocyte Editing % 100 ng/ml
- Test system: ANGPTL3 gene
- Method: ANGPTL3 gRNA/SpCas9 editing in primary human hepatocytes (Table 3)
- Type: cell-based
- Experimental: In set of experiments, PCSK9 gRNAs were co-transfected with an equivalent amount (1:1 ratio by weight) of in vitro transcribed commercially available SpCas9 mRNA MS002 purchased from TriLink Biotechnologies into primary human hepatocytes at 2500, 500, or 100 ng/RNA/mL and processed as described in detailed methods. Extracted genomic DNA was analyzed for gene editing at the target site with next-generation sequencing of PCR amplicons generated around the target sites. […]
Endpoint Label: Human Primary Hepatocyte Editing % 100 ng/ml (%)

- Molecule: "GA148: ANGPTL3 gRNA; protospacer ACAAAACTTCAATGAAACGT (SEQ ID NO: 146) (nucleic acid, 2'-O-methyl at 1, 2, other sugars and backbone not given here; further chemistry not fully specified) guide: ACAAAACTTCAATGAAACGTGTTTTAGAGCTAGAAATAGCAAGTTAAAATAAGGCTAGTCCGTTATCAACTTGAAAAAGTGGCACCGAGTCGGTGCTTTT"
  Number: 12.01
- Molecule: "GA141: ANGPTL3 gRNA; protospacer TTGAGAGTTGCTGGGTCTGA (SEQ ID NO: 139) (nucleic acid, 2'-O-methyl at 1, 2, other sugars, backbone and T or U not given here; further chemistry not fully specified) guide: UUGAGAGTTGCTGGGTCTGAGTTTTAGAGCTAGAAATAGCAAGTTAAAATAAGGCTAGTCCGTTATCAACTTGAAAAAGTGGCACCGAGTCGGTGCTTTT"
  Number: 5.80
- Molecule: "GA116: ANGPTL3 gRNA; protospacer GTAGAATTTTTTCTTCTAGG (SEQ ID NO: 114) (nucleic acid, 2'-O-methyl at 1, 2, other sugars, backbone and T or U not given here; further chemistry not fully specified) guide: GUAGAATTTTTTCTTCTAGGGTTTTAGAGCTAGAAATAGCAAGTTAAAATAAGGCTAGTCCGTTATCAACTTGAAAAAGTGGCACCGAGTCGGTGCTTTT"
  Number: 3.78
